Assay: Cytotoxicity against mouse AML12 cells assessed as reduction in cell viability incubated for 48 hrs by MTT assay
Assay type: toxicity, cell-based
The compounds listed here are annotated with their CC50 at 48 h.

| compound_structure | CC50 at 48 h |
| --- | --- |
| CC[C@H]1OC(=O)[C@@](C)(F)C(=O)[C@H](C)[C@@H](O[C@@H]2O[C@H](C)C[C@H](N(C)C)[C@H]2O)[C@](C)(OC)C[C@@H](C)C(=O)[C@H](C)[C@H]2N(CCCOC(=O)Nc3ccccc3Cl)C(=O)O[C@]12C | 36.2 µM |
| CC[C@H]1OC(=O)[C@@](C)(F)C(=O)[C@H](C)[C@@H](O[C@@H]2O[C@H](C)C[C@H](N(C)C)[C@H]2O)[C@](C)(OC)C[C@@H](C)C(=O)[C@H](C)[C@H]2N(CCCOC(=O)Nc3cccc(C)c3C)C(=O)O[C@]12C | 26 µM |
| CCc1ccc(NC(=O)OCCCN2C(=O)O[C@]3(C)[C@@H](CC)OC(=O)[C@@](C)(F)C(=O)[C@H](C)[C@@H](O[C@@H]4O[C@H](C)C[C@H](N(C)C)[C@H]4O)[C@](C)(OC)C[C@@H](C)C(=O)[C@H](C)[C@@H]23)cc1 | 25.6 µM |
| CC[C@H]1OC(=O)[C@@](C)(F)C(=O)[C@H](C)[C@@H](O[C@@H]2O[C@H](C)C[C@H](N(C)C)[C@H]2O)[C@](C)(OC)C[C@@H](C)C(=O)[C@H](C)[C@H]2N(CCCOC(=O)Nc3c(C)noc3C)C(=O)O[C@]12C | > 100 µM |
| CC[C@H]1OC(=O)[C@@](C)(F)C(=O)[C@H](C)[C@@H](O[C@@H]2O[C@H](C)C[C@H](N(C)C)[C@H]2O)[C@](C)(OC)C[C@@H](C)C(=O)[C@H](C)[C@H]2N(CCCOC(=O)Nc3cccc(F)c3C)C(=O)O[C@]12C | 36.7 µM |
| CC[C@H]1OC(=O)[C@@](C)(F)C(=O)[C@H](C)[C@@H](O[C@@H]2O[C@H](C)C[C@H](N(C)C)[C@H]2O)[C@](C)(OC)C[C@@H](C)C(=O)[C@H](C)[C@H]2N(CCCOC(=O)Nc3ccc(F)cc3)C(=O)O[C@]12C | 97.9 µM |
| CC[C@H]1OC(=O)[C@H](C)[C@@H](O[C@H]2C[C@@](C)(OC)[C@@H](O)[C@H](C)O2)[C@H](C)[C@@H](O[C@@H]2O[C@H](C)C[C@H](N(C)C)[C@H]2O)[C@](C)(OC)C[C@@H](C)C(=O)[C@H](C)[C@@H](O)[C@]1(C)O | > 100 µM |
| CC[C@H]1OC(=O)[C@@](C)(F)C(=O)[C@H](C)[C@@H](O[C@@H]2O[C@H](C)C[C@H](N(C)C)[C@H]2O)[C@](C)(OC)C[C@@H](C)C(=O)[C@H](C)[C@H]2N(CCCOC(=O)Nc3cc(C)cc(C)c3)C(=O)O[C@]12C | 25.5 µM |
